Hi there, I'd appreciate the recorded EC50 of antibody induced CDC effect for every entry that follows.
Target: T1, human CD276 protein (human, UniProt Q5ZPR3 29-534)
T1 sequence (looked up): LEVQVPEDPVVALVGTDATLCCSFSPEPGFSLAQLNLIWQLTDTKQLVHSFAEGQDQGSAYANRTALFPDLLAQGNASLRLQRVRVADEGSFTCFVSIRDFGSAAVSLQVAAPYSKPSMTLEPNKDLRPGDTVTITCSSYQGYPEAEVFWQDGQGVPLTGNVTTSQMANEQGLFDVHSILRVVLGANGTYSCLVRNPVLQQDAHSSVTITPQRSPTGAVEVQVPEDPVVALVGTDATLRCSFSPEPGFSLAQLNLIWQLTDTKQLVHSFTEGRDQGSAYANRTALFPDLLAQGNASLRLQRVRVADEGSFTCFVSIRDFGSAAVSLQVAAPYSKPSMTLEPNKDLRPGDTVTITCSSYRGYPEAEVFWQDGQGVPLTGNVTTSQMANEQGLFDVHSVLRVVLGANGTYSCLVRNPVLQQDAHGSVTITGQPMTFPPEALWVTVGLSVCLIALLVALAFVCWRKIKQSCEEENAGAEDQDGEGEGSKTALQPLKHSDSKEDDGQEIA
Experiment: cell-based or functional assay
Numbers only, in nM.

Recorded EC50 of antibody induced CDC effect, per entry:
[
  {
    "Binder": "15-C8-B5-G7 (human IgG1 chimeric antibody) (antibody, V domains shown, human IgG1 chimeric antibody of the mouse clone) VH: QVQLQQPGAELVKPGASVKLSCKASDYTFTSHWMHWVKQRPGQGLEWIGMIHPNSGTTHYNENFKNKATLTVDNSSSTAYMQLSSLTSEDSAVYYCAWGSSNSYFYAMAYWGQGTSVTVSS VL: QAVVTQESALTTSPGETVTLTCRSSTGAVTTSNYANWVQEKPAHLFTGLIGGTNNRAPGVPARFSGSLIGDKAALTITGAQTEDEAIYFCALWFSNHLVFGGGTKLTVL",
    "Display unit": "nM",
    "Recorded number": 7.54
  },
  {
    "Binder": "6-D8-E7-A11 (human IgG1 chimeric antibody) (antibody, V domains shown, human IgG1 chimeric antibody of the mouse clone) VH: QVHLQQPGAELVKPGASVKLSCKASGYTFTNYWMHWVKRRPGQGLEWIGMIHPNSGTTSFNEKFKSKATLTVDKSSSTAYMQLSSLTSEDSAVYYCAGYYGSSFSWFTYWGQGTLVTVSA VL: QAVVTQESALTTSPGGTVILTCRSSTGAVTTSNFANWVQEKPDHLFTGLIGGTSNRAPGVPVRFSGSLIGDKAALTITGAQTEDDAMYFCALWYSTHYVFGGGTKVTVL",
    "Display unit": "nM",
    "Recorded number": 1.57
  },
  {
    "Binder": "30-C7-C11-D4 (human IgG1 chimeric antibody) (antibody, V domains shown, human IgG1 chimeric antibody of the mouse clone) VH: EVQLVESGPGLVKPSQSLSLTCTVTGYSITSDYAWNWIRQFPGNKLEWMGYISHSGSTSYNPSLKSRISITRDTSKNQFFLQLNSVTTEDTATYYCARSLGRRWYFDVWGAGTTVTVSS VL: DIVMTQSPSSLAMSVGQKVTLSCKSSQSLLNSSTQKNYLAWYQQKPGQSPKLLVYFASTRDSGVPDRFIGSGSGTEFTLTISSVQAEDLADYFCQQHYIIPFTFGAGTKLEIK",
    "Display unit": "nM",
    "Recorded number": 3.21
  },
  {
    "Binder": "18-F9-D8-G7 (human IgG1 chimeric antibody) (antibody, V domains shown, human IgG1 chimeric antibody of the mouse clone) VH: EVQLQQSGPELVRPGVSVKISCKGSGYTFTDYAMHWVKQSHAQSLEWIGIINTYSGDTNYNQKFKGKATMTVDKSSSTAYMGLARLTSEDSAIFYCARGGGNYPYWYFDVWGAGTTVTVSS VL: ENVLTQSPAIMSASPGEKVTMTCRASSSVSSSYLHWYQQKSGDSPKLWIYSTSNLASGVPARFSGSGSGTSYSLTISSVEAEDAATYYCQQFSVYPLTFGAGTKLEIK",
    "Display unit": "nM",
    "Recorded number": 2.44
  },
  {
    "Binder": "16-G3-D10-C10 (human IgG1 chimeric antibody) (antibody, V domains shown, human IgG1 chimeric antibody of the mouse clone) VH: QIQLVQSGPELKKPGETVKISCKASGYTFRNYGMNWVKQGPGKDLKWMGWINPYTGEPTYIGDFKGRFAFSLETSANSAYLQINNLNNEDMATYFCARDDGYWYTMDYWGQGTSVTVSS VL: DVVMTQTPPSLPVSLGDQASIPCRSSQSLVHSNGITYLHWYLQKPGQSPKLLIYKVSNRFSGVPDRFSGSGSGTDFTLKISRVEAEDLGVYFCSQSTHVPWTFGGGTKLEIK",
    "Display unit": "nM",
    "Recorded number": 1.43
  }
]

The record that follows has no EC50 of antibody induced CDC effect shown yet.
INPUT: Provide EC50 of antibody induced CDC effect value for the following binder: 16-C6-F7-F5 (human IgG1 chimeric antibody) (antibody, V domains shown, human IgG1 chimeric antibody of the mouse clone) VH: QIQLVQSGPEVKKPGETVKISCKASGYTFTKYGINWVKQAPGEGLKWMGWIWTYTGKPTYGDDFKGRFAFSLETSASTAYLQISDLKIEDMATYFCARDDGYYYTMNYWGQGTSVTVSS VL: DIVMTQTPLSLPVSLGDQASISCRSSQSLLHTNGDTYLHWYLQKAGQPPKLLIYKVSNRFSGVPDRFSGSGSGTDFTLKISRVEAEDLGVYFCSQSTHIPWTFGGGTKLEIK
OUTPUT: 1.28
